Value source: PubChem BioAssay AID1159580

# Test Name: chemical genetic growth profiling, strain panel (AID 1159580);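 note: tested at 20 µM; growth read once vehicle control cultures reached saturation at 30 °C; 1 = growth at the plate median or of vehicle wells; lower values mean less growth of the strain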
# Condition Description: S. cerevisiae deletion strains, growth OD, locus YPR167C, strain met16, hits give low values
Out of some 5,500 compounds screened, about 2,000 (36%) were called active. Inconclusive results (about 18%) are left out. The list shows a part of the results.
Measure Name: normalized growth
Returns: the value as a bare number; no unit string appended.

Answered cases to consult:
| Compound | normalized growth |
| --- | --- |
| CCC(=O)c1c(O)cc(O)cc1O | 0.98 |
| NC(=NCCC[C@H](N)C(=O)O)N[N+](=O)[O-] | 0.999 |
| O=C(Cc1cccs1)NC1C(=O)N2C(C(=O)[O-])=C(C[n+]3ccccc3)CSC12 (stereo not given) | 0.988 |
| CC1O[C@@H](Oc2c(-c3ccc(O)c(O)c3)oc3cc(O)cc(O)c3c2=O)[C@H](O)[C@H](O)[C@H]1O (stereo not given in full) | 0.982 |

Now let's try a different one.
## Input # normalized growth lookup, item `O=C(O[C@@H]1Cc2c(O)cc(O)cc2O[C@@H]1c1cc(O)c(=O)c2c(O)c(O)cc([C@H]3Oc4cc(O)cc(O)c4C[C@H]3OC(=O)c3cc(O)c(O)c(O)c3)c2c1)c1cc(O)c(O)c(O)c1`
## Output 1.02

###

# Test Name: chemical genetic growth profiling, strain panel (AID 1159580)
# Condition Description: S. cerevisiae deletion strains, growth OD, locus YNR049C, strain mso1, hits give low values
The whole screen tested about 5,500 compounds, of which about 2,000 (36%) were called active. Roughly 18% stayed inconclusive and do not appear here. This is one part of the list.
Readings of normalized growth for the listed molecules
Returns: the value as a bare number; no unit string appended.

Answered cases to consult:
| Molecule | normalized growth |
| --- | --- |
| COc1ccc(-c2cc(=O)c3c(O)cc(O[C@H]4O[C@H](CO[C@@H]5O[C@@H](C)[C@H](O)[C@@H](O)[C@H]5O)[C@@H](O)[C@H](O)[C@H]4O)cc3o2)cc1 | 0.991 |
| CCCCOc1cc(C(=O)NCCN(CC)CC)c2ccccc2n1 | 0.967 |
| CC1(C)C(=O)C=C[C@@]2(C)C1CC(=O)[C@]1(C)C2CC[C@@]2(C)[C@H](c3ccoc3)OC(=O)[C@H]3O[C@]321 (some centres undefined) | 0.952 |

Now let's try a different one.
## Input # normalized growth lookup, item C[N+](C)(C)CC(O)CC(=O)O (centres undefined)
## Output 0.981

###

Readings of normalized growth for the listed compounds
# Test Name: chemical genetic growth profiling, strain panel (AID 1159580)
# Condition Description: S. cerevisiae deletion strains, growth OD, locus YDL017W, strain CDC7, hits give low values
In all, about 5,500 compounds went through this assay and about 2,000 (36%) were called active. Not shown: some 18% with an inconclusive outcome. The list shows a part of the results.
Returns: the value as a bare number; no unit string appended.

| Compound | Number |
| --- | --- |
| OC(COc1ccc(F)cc1)(c1ccccc1)c1ccccc1 | 0.955 |

## Input # normalized growth lookup, item `Oc1c(Br)cc(Br)cc1C=Nc1ccc(Sc2ccccc2)nc1Sc1ccccc1`
## Output 0.948

## Input # normalized growth lookup, item `FC(F)(F)c1cccc(NC(=S)NN=C2CCCCCC2)c1`
## Output 0.983

## Input # normalized growth lookup, item `CCNC(=S)N/N=C\c1cc(Cl)cc(Cl)c1O`
## Output 0.925

## Input # normalized growth lookup, item `O=C1/C(=C/c2ccccn2)CCc2ccccc21`
## Output 0.954

###

Readings of normalized growth for the listed molecules
# Test Name: chemical genetic growth profiling, strain panel (AID 1159580);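 note: tested at 20 µM; growth read once vehicle control cultures reached saturation at 30 °C; 1 = growth at the plate median or of vehicle wells; lower values mean less growth of the strain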
# Condition Description: S. cerevisiae deletion strains, growth OD, locus YLR320W, strain mms22, hits give low values
Out of some 5,500 compounds screened, about 2,000 (36%) were called active. Not shown: some 18% with an inconclusive outcome. Some of the results follow. Where a SMILES comes first, the peptide text is derived from it.
Returns: the value as a bare number; no unit string appended.

| Molecule | normalized growth |
| --- | --- |
| COc1cc(OC)c2c(=O)c(OC)c(-c3ccc(OC)c(OC)c3)oc2c1 | 0.985 |
| CC(C)(C)NCC(O)c1cc(O)cc(O)c1 (configuration not stated) | 0.981 |

## Input # normalized growth lookup, item C[C@]12C=CC(=O)C=C1CCC1C2[C@@H](O)C[C@@]2(C)C1CC[C@]2(O)C(=O)COP(=O)(O)O (some centres not stated)
## Output 1

## Input # normalized growth lookup, item COC(=O)[C@H](Cc1ccccc1)NC(=O)[C@@H](N)CC(=O)O (H-Asp-Phe-OMe)
## Output 1.01

## Input # normalized growth lookup, item `Cc1[nH]ccc2c1[nH]c1cc(=O)ccc12`
## Output 0.999

## Input # normalized growth lookup, item `O=C(O)C1=C[C@@H](O)[C@@H](O)[C@H](O)C1`
## Output 0.985

###

Readings of normalized growth for the listed molecules
# Test Name: chemical genetic growth profiling, strain panel (AID 1159580);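 note: tested at 20 µM; growth read once vehicle control cultures reached saturation at 30 °C; 1 = growth at the plate median or of vehicle wells; lower values mean less growth of the strain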
# Condition Description: S. cerevisiae deletion strains, growth OD, locus YKL085W, strain MDH1, hits give low values
Among all 5,500 compounds or so, about 2,000 (36%) were called active. Inconclusive results (about 18%) are left out. Some of the results follow.

| Molecule | normalized growth |
| --- | --- |
| CCOC(=O)c1c(C)cc(OC)cc1O | 0.946 (inactive) |
| NC(=O)CN1CCCC1=O | 1.02 (inactive) |
| COc1ccc2c(c1)CCC1C2CC[C@@]2(C)C1CC[C@@H]2O (some centres undefined) | 0.853 (active) |

Now let's try a different one.
## Input # normalized growth lookup, item `COC(=O)c1c(C)cc(OC)cc1O`
## Output 0.978 (inactive)

###

# Test Name: chemical genetic growth profiling, strain panel (AID 1159580);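 note: tested at 20 µM; growth read once vehicle control cultures reached saturation at 30 °C; 1 = growth at the plate median or of vehicle wells; lower values mean less growth of the strain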
# Condition Description: S. cerevisiae deletion strains, growth OD, locus YGL173C, strain kem1, hits give low values
Among all 5,500 compounds or so, about 2,000 (36%) were called active. Not shown: some 18% with an inconclusive outcome. The list shows a part of the results.
Measure Name: normalized growth
Returns: the value as a bare number; no unit string appended.

Answered cases to consult:
| Molecule | Number |
| --- | --- |
| COC1=CC(=O)C(O)=C/C1=C\C=C\c1ccccc1 | 0.0694 |
| COc1ccc(-c2oc3cc(O[C@H]4O[C@H](CO)[C@@H](O)[C@H](O)[C@H]4O)c(OC)c(O)c3c(=O)c2OC)cc1O | 0.989 |
| CN[C@@H]1[C@@H](O)C(OC2[C@@H](N)C[C@@H](N)[C@H](O[C@H]3O[C@H](C(C)O)[C@@H](O)[C@H](O)[C@H]3N)[C@H]2O)OC[C@]1(C)O (stereo partly specified) | 0.96 |
| COc1ccc2c(c1)CCC1C2CCC2(C)C1C[C@@H](O)C2O (stereo partly specified) | 0.949 |
| CC(CC(O)C1OC1(C)C)[C@@H]1CCC2(C)C3=CCC4C(C)(C)C(=O)CCC4(C)C3CC[C@@]12C (stereo partly specified) | 1 |

## Input # normalized growth lookup, item Oc1cc2c(cc1O)C1c3ccc(O)c(O)c3OCC1(O)C2 (stereo unspecified)
## Output 0.985

## Input # normalized growth lookup, item COc1ccc2c(c1)CCC1C2CC[C@@]2(C)C1CC[C@@H]2O (stereo partly specified)
## Output 0.885

## Input # normalized growth lookup, item C[C@]12CCC3c4ccc(O)cc4CCC3C1C[C@@H](O)[C@@H]2O (stereo partly specified)
## Output 1.01

## Input # normalized growth lookup, item `CCC(=O)c1c(O)cc(O)cc1O`
## Output 1.01

## Input # normalized growth lookup, item `CC(=O)OCC1=C(C(=O)O)N2C(=O)[C@@H](NC(=O)Cc3cccs3)[C@H]2SC1`
## Output 0.987

## Input # normalized growth lookup, item CO[C@@]1(NC(=O)C(C(=O)O)c2ccc(O)cc2)C(=O)N2C(C(=O)O)=C(CSc3nnnn3C)CO[C@@H]21 (stereo partly specified)
## Output 0.992

## Input # normalized growth lookup, item O=C(OC1Cc2c(O)cc(O)cc2OC1c1cc(=O)c(O)c2c(O)c(O)cc(C3Oc4cc(O)cc(O)c4CC3O)c2c1)c1cc(O)c(O)c(O)c1 (stereo unspecified)
## Output 0.81

## Input # normalized growth lookup, item CCC1OC(=O)[C@H](C)C(=O)[C@H](C)[C@@H](OC2O[C@H](C)C[C@H](N(C)C)[C@H]2O)[C@](C)(OC)C2(CCCn3cnc(-c4cccnc4)c3)C[C@@H](C)C(=O)[C@H](C)[C@H]3N(C2)C(=O)O[C@]13C (stereo partly specified)
## Output 0.975

## Input # normalized growth lookup, item Oc1ccc2c(c1)OCC1(O)Cc3cc(O)c(O)cc3C21 (stereo unspecified)
## Output 1.03
